# System: HCT-116
# Experiment: Cytotoxicity against human HCT116 cells
# Assay type: functional, cell-based
pIC50: −log10 of the molar value.
Readout: pIC50

Structure Smiles String | Study System | Readout | Quantitative Readout
Oc1c(Br)ccc2nc3ccccc3nc12 | HCT-116 | pIC50 | 7.00

* * *

# Study System: NAD(P)H dehydrogenase [quinone] 1 (Mus musculus)
# Assay Conditions: Hepa-1c1c7
Use CD to assign classes; range list: small value (below 2 µM), mid value (2 µM to below 10 µM), large value (10 µM or more)

Compound | Class Assignment
COc1cccc2nc3cc4ccccc4cc3nc12 | small value
COc1ccc(Br)c2nc3cc(C)c(C)cc3nc12 | small value
Oc1cccc2nc3cc(Cl)c(Cl)cc3nc12 | small value
Cc1nc2cc3ccccc3cc2nc1C | large value
COc1cccc2nc3cc(C)c(C)cc3nc12 | large value
CS/C(S)=N/CCCC[S+](C)[O-] (centres undefined) | small value
c1ccc2cc3nc4ccccc4nc3cc2c1 [BENZO[B]PHENAZINE] | mid value
COc1ccc(Br)c2nc3ccccc3nc12 | mid value
Cc1cc2nc3ccccc3nc2cc1C | large value
COc1cc(Br)cc2nc3cc(Cl)c(Cl)cc3nc12 | small value
Oc1c(Br)cc(Br)c2nc3ccccc3nc12 | large value
COc1cccc2nc3cc(Cl)c(Cl)cc3nc12 | mid value
C[S+]([O-])CCCCN=C=S (centres undefined) | small value
COc1c(Br)ccc2nc3ccccc3nc12 | large value

* * *

# Experiment: Inhibition of NF-kappaB expressed in human HEK293 cells by luciferase reporter gene based luminometric analysis
# Assay type: cell-based
Rule for this label: Fulfilled means IC50 is less than 5 µM; Not fulfilled means IC50 is at least 5 µM.

Compound | Class Assignment
COc1cc(Br)cc2nc3cc(Cl)c(Cl)cc3nc12 | Fulfilled
Oc1c(Br)ccc2nc3ccccc3nc12 | Not fulfilled
COc1cccc2nc3cc4ccccc4cc3nc12 | Fulfilled
O=[N+]([O-])c1cc(Br)c2nc3ccccc3nc2c1 | Not fulfilled
c1ccc2cc3nc4ccccc4nc3cc2c1 [BENZO[B]PHENAZINE] | Fulfilled
COc1cc(Br)c(Br)c2nc3cc(C)c(C)cc3nc12 | Fulfilled
Oc1cc(Br)c(Br)c2nc3ccccc3nc12 | Fulfilled
Cc1cc2nc3ccccc3nc2cc1C | Not fulfilled
COc1ccc(Br)c2nc3cc(C)c(C)cc3nc12 | Not fulfilled
Oc1ccc(Br)c2nc3ccccc3nc12 | Not fulfilled
Oc1cc(Br)cc2nc3ccccc3nc12 | Not fulfilled
Cc1nc2c(Br)cc(Br)c(O)c2nc1C | Fulfilled
COc1cc(Br)cc2nc3cc(C)c(C)cc3nc12 | Not fulfilled
COc1cccc2nc3cc(Cl)c(Cl)cc3nc12 | Not fulfilled
